# SYSTEM: Proton Pump (H^+ /K^+ ATPase) (Oryctolagus cuniculus, UniProt P27112)
# Construct: The microsomes thus obtained were used as an enzyme source of the in vitro enzyme reaction study of proton pump; from tissue; host or cells: rabbit stomach, mucosal scrapings, microsomes (180,000 g pellet)
# Sequence (P27112 whole entry): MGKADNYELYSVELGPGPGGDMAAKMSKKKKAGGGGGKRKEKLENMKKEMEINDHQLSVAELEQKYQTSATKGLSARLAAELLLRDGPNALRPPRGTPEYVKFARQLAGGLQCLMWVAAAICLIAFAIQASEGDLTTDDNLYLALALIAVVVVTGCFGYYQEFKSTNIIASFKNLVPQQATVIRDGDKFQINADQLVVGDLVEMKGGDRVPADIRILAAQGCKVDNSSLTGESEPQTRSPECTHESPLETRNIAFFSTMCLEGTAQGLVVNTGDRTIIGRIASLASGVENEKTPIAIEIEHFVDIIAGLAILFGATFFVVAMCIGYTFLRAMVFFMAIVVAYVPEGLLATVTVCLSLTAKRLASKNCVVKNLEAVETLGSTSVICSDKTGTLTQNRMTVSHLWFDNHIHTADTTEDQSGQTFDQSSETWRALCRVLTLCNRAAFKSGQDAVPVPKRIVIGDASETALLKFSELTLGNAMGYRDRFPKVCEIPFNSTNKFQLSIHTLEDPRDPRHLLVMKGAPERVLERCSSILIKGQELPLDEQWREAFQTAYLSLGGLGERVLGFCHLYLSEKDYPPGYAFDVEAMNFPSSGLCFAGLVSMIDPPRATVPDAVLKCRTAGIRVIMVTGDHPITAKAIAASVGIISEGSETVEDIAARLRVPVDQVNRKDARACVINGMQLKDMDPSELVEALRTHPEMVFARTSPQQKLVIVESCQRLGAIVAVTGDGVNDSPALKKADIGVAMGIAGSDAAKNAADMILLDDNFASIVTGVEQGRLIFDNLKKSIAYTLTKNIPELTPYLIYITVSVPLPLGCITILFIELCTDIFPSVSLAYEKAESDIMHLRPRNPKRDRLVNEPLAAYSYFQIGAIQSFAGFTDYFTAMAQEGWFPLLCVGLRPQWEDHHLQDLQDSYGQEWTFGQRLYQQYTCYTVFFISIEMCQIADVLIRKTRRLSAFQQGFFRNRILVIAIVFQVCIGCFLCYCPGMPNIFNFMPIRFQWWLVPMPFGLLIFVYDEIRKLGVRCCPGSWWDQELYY
# Sequence (P18597 whole entry partner): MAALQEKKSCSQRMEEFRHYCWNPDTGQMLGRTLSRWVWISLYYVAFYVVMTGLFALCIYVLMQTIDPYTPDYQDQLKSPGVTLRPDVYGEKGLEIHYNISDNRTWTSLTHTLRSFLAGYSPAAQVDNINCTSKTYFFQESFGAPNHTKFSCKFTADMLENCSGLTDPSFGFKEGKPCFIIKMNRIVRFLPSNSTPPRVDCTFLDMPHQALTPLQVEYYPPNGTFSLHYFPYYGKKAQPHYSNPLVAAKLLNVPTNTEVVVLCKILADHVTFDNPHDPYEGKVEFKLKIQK
# ASSAY_COMMENT: Inhibition of Proton Pump (H+/K+ ATPase) Activity, in vitro enzyme reaction (Experiment 1)
# Assay type: biochemical, New Zealand white rabbit
# COND: IC50 of Omeprazole / IC50 of test compound
TEST_READOUT: Effect ratio
Answer using only a numeral; do not append any unit.

{"COMPOUND": "COc1cccc2c(N3CCc4ccccc4C3)nc(N(C)c3ccccc3)nc12.Cl", "RECORDED_RESULT": 1.47}
{"COMPOUND": "COc1cccc2c(N3CCc4ccccc4C3)nc(Nc3ccccc3)nc12.Cl", "RECORDED_RESULT": 6.92}

Now for a further compound.
Q: Look at this compound and give its reported Effect ratio. COc1cccc2c(N3CCc4cccc5c4C3CC5)nc(Nc3ccc(F)cc3)nc12.Cl (stereo not shown)
Ans: 0.65

----------
# SYSTEM: Proton Pump (H^+ /K^+ ATPase) (Oryctolagus cuniculus)
# Construct: The microsomes thus obtained were used as an enzyme source of the in vitro enzyme reaction study of proton pump; from tissue; host or cells: rabbit stomach, mucosal scrapings, microsomes (180,000 g pellet)
# ASSAY_COMMENT: Inhibition of Proton Pump (H+/K+ ATPase) Activity, in vitro enzyme reaction (Experiment 1)
# Format: biochemical, New Zealand white rabbit
# COND: K+-stimulated H+/K+ ATPase activity, rabbit gastric microsomes, pH 7.2, 37° C., 15 min prereaction, 30 min reaction; read-out: IC50 of test compound, inhibition (50%) of the proton pump activity
Measured pIC50 values are reported for all entries that follow.
Note on units: pIC50 is unitless, being -log10 of a concentration expressed in mol/L.

{"COMPOUND": "Cl.c1ccc(Nc2nc(N3CCc4ccccc4C3)c3ccccc3n2)cc1 [Example 18, Hydrochloride]", "SYSTEM": "Proton Pump (H^+ /K^+ ATPase) (Oryctolagus cuniculus)", "RECORDED_RESULT": 6.22}
{"COMPOUND": "COc1cccc2c(N3CCc4ccccc4C3C)nc(Nc3ccc(F)cc3C)nc12.O=C(O)CC(O)C(=O)O (stereo not drawn) [Example 61, Malate]", "SYSTEM": "Proton Pump (H^+ /K^+ ATPase) (Oryctolagus cuniculus)", "RECORDED_RESULT": 5.68}
{"COMPOUND": "COc1cccc2c(N3CC(C)c4ccccc4C3C)nc(Nc3ccc(F)cc3C)nc12.Cl (stereo not drawn) [Example 57, Hydrochloride]", "SYSTEM": "Proton Pump (H^+ /K^+ ATPase) (Oryctolagus cuniculus)", "RECORDED_RESULT": 5.14}
{"COMPOUND": "Cc1cc(F)ccc1Nc1nc(N2CCc3ccccc3C2C)c2ccccc2n1.Cl (stereo not drawn) [Example 26, Hydrochloride]", "SYSTEM": "Proton Pump (H^+ /K^+ ATPase) (Oryctolagus cuniculus)", "RECORDED_RESULT": 6.40}

Q: Look at this compound and give its reported pIC50. COc1cccc2c(N3CCc4cccc5c4C3CC5)nc(Nc3ccc(F)cc3C)nc12.Cl (stereo not drawn) [Example 59, Hydrochloride]
Ans: 5.32

Q: Look at this compound and give its reported pIC50. COc1cccc2c(N3CCc4ccccc4[C@H]3C)nc(Nc3ccc(F)cc3C)nc12.Cl [Example 35, Hydrochloride]
Ans: 5.74

Q: Look at this compound and give its reported pIC50. COc1cccc2c(N3CCc4ccccc4C3C)nc(Nc3ccc(F)cc3C)nc12.CS(=O)(=O)O (stereo not drawn) [Example 60, Methanesulfonate]
Ans: 5.74

Q: Look at this compound and give its reported pIC50. COc1cccc2c(N3CCc4ccccc4C3C)nc(Nc3ccc(F)cc3C)nc12.Cl (stereo not drawn) [Example 34, Hydrochloride]
Ans: 5.77

Q: Look at this compound and give its reported pIC50. COc1cccc2c(N3CCc4ccccc4C3C(F)(F)F)nc(Nc3ccc(F)cc3C)nc12.Cl (stereo not drawn) [Example 42, Hydrochloride]
Ans: 4.90

----------
# SYSTEM: Proton Pump (H^+ /K^+ ATPase) (Oryctolagus cuniculus)
# Construct: The microsomes thus obtained were used as an enzyme source of the in vitro enzyme reaction study of proton pump; from tissue; host or cells: rabbit stomach, mucosal scrapings, microsomes (180,000 g pellet)
# ASSAY_COMMENT: Inhibition of Proton Pump (H+/K+ ATPase) Activity, in vitro enzyme reaction (Experiment 1)
# Format: biochemical, New Zealand white rabbit
# COND: IC50 of Omeprazole / IC50 of test compound
Where a name gives a salt, the structure may show the parent alone.
TEST_READOUT: Effect ratio
Answer using only a numeral; do not append any unit.

Before answering, review these 3 worked examples.
{"COMPOUND": "COc1cccc2c(N3CCc4cccc(C)c4C3C)nc(Nc3ccc(F)cc3)nc12.Cl (stereo not drawn)", "TEST_READOUT": "Effect ratio", "RECORDED_RESULT": 1.26}
{"COMPOUND": "COc1cccc2c(N3CCc4ccccc4[C@H]3C)nc(Nc3ccc(F)cc3C)nc12.Cl", "TEST_READOUT": "Effect ratio", "RECORDED_RESULT": 2.83}
{"COMPOUND": "COc1cccc2c(N3CCc4ccccc4C3C)nc(Nc3ccc(F)cc3C)nc12.Cl (stereo not drawn)", "TEST_READOUT": "Effect ratio", "RECORDED_RESULT": 5.45}

Now for a further compound.
Q: Look at this compound and give its reported Effect ratio. COc1cccc2c(N3CCc4ccccc4C3(C)C)nc(Nc3ccc(F)cc3C)nc12 [Example 51, Hydrochloride]
Ans: 1.21

----------
# SYSTEM: Proton Pump (H^+ /K^+ ATPase) (Oryctolagus cuniculus, UniProt P27112)
# Construct: The microsomes thus obtained were used as an enzyme source of the in vitro enzyme reaction study of proton pump; from tissue; host or cells: rabbit stomach, mucosal scrapings, microsomes (180,000 g pellet)
# ASSAY_COMMENT: Inhibition of Proton Pump (H+/K+ ATPase) Activity, in vitro enzyme reaction (Experiment 1)
# Format: biochemical, New Zealand white rabbit
# COND: IC50 of Omeprazole / IC50 of test compound
Where a name gives a salt, the structure may show the parent alone.
TEST_READOUT: Effect ratio
Answer using only a numeral; do not append any unit.

{"MOLECULE": "CN(c1ccc(F)cc1)c1nc(N2CCc3ccccc3C2)c2ccccc2n1.Cl", "TEST_READOUT": "Effect ratio", "RECORDED_RESULT": 1.10}
{"MOLECULE": "Cc1cc(F)ccc1Nc1nc(N2CCc3ccccc3C2)c2ccccc2n1.Cl", "TEST_READOUT": "Effect ratio", "RECORDED_RESULT": 11.29}
{"MOLECULE": "CSCOc1cccc2c(N3CCc4ccccc4C3C)nc(Nc3ccc(F)cc3C)nc12 (centres unmarked) [Example 39, Hydrochloride]", "TEST_READOUT": "Effect ratio", "RECORDED_RESULT": 0.70}
{"MOLECULE": "COc1cccc2c(N3CCc4ccccc4C3C)nc(N(C)c3ccc(F)cc3)nc12.Cl (centres unmarked)", "TEST_READOUT": "Effect ratio", "RECORDED_RESULT": 2.00}
{"MOLECULE": "COc1cccc2c(N3CCc4ccccc4C3C)nc(Nc3ccc(F)cc3C)nc12.O=C(O)CC(O)C(=O)O (centres unmarked)", "TEST_READOUT": "Effect ratio", "RECORDED_RESULT": 4.42}

Q: Proton Pump (H^+ /K^+ ATPase) (Oryctolagus cuniculus, UniProt P27112) / Effect ratio / Cc1cc(F)ccc1Nc1nc(N2CCc3ccccc3C2C)c2ccccc2n1.Cl (centres unmarked) : value?
Ans: 46.00

Q: Proton Pump (H^+ /K^+ ATPase) (Oryctolagus cuniculus, UniProt P27112) / Effect ratio / CN(c1ccccc1)c1nc(N2CCc3ccccc3C2)c2ccccc2n1 : value?
Ans: 1.83

----------
Measured pIC50 values are reported for all entries that follow.
# SYSTEM: Proton Pump (H^+ /K^+ ATPase) (Oryctolagus cuniculus, UniProt P27112)
# Construct: The microsomes thus obtained were used as an enzyme source of the in vitro enzyme reaction study of proton pump; from tissue; host or cells: rabbit stomach, mucosal scrapings, microsomes (180,000 g pellet)
# ASSAY_COMMENT: Inhibition of Proton Pump (H+/K+ ATPase) Activity, in vitro enzyme reaction (Experiment 1)
# Format: biochemical, New Zealand white rabbit
# COND: K+-stimulated H+/K+ ATPase activity, rabbit gastric microsomes, pH 7.2, 37° C., 15 min prereaction, 30 min reaction; read-out: IC50 of test compound, inhibition (50%) of the proton pump activity
pIC50: −log10 of the molar value.

Before answering, review these 2 worked examples.
{"MOLECULE": "COc1cccc2c(N3Cc4ccccc4CC3C)nc(Nc3ccc(F)cc3C)nc12.Cl (centres unmarked) [Example 49, Hydrochloride]", "SYSTEM": "Proton Pump (H^+ /K^+ ATPase) (Oryctolagus cuniculus, UniProt P27112)", "pIC50": "< 4.60"}
{"MOLECULE": "COc1cccc2c(N3CCc4ccccc4C3CF)nc(Nc3ccc(F)cc3)nc12.Cl (centres unmarked) [Example 43, Hydrochloride]", "SYSTEM": "Proton Pump (H^+ /K^+ ATPase) (Oryctolagus cuniculus, UniProt P27112)", "pIC50": "< 4.90"}

Q: Proton Pump (H^+ /K^+ ATPase) (Oryctolagus cuniculus, UniProt P27112) / pIC50 / CC1c2ccccc2CCN1c1nc(N(C)c2ccccc2)nc2ccccc12.Cl (centres unmarked) [Example 24, Hydrochloride] : value?
Ans: ~4.90

Q: Proton Pump (H^+ /K^+ ATPase) (Oryctolagus cuniculus, UniProt P27112) / pIC50 / COc1cccc2c(N3Cc4ccccc4CC3C)nc(Nc3ccc(F)cc3)nc12.Cl (centres unmarked) [Example 48, Hydrochloride] : value?
Ans: ~4.60

Q: Proton Pump (H^+ /K^+ ATPase) (Oryctolagus cuniculus, UniProt P27112) / pIC50 / COc1cccc2c(N3CCc4ccccc4C3C3CC3)nc(Nc3ccc(F)cc3C)nc12.Cl (centres unmarked) [Example 47, Hydrochloride] : value?
Ans: ~4.60
